- experimentDescription: Cmax in Han Wistar rat at 5 mg/kg, po
- Type: ADME, organism-based
- Design: dose 5 mg/kg, route oral
- conditionContext: in vivo
reportedMetric: Cmax (nM)
Response body: numeric value in nM, unit text excluded.

Return reported Cmax; argument: `COc1cc2ncnc(Nc3cccc(Cl)c3F)c2cc1OC(=O)N1CCN(C)CC1`
2020

====

- experimentDescription: AUC (0 to 7 hrs) in Han Wistar rat CSF at 2 mg/kg, po by LC-MS/MS analysis
- Format: ADME, organism-based, Cerebrospinal fluid
- Parameters: time < 7 hr, dose 2 mg/kg, route oral
- conditionContext: Han Wistar, CSF
reportedMetric: AUC(0-t) at 7 h (µM·h)
Response body: numeric value in µM·h, unit text excluded.

Return reported AUC(0-t) at 7 h; argument: `COc1cc2ncnc(Nc3cccc(Cl)c3F)c2cc1OC(=O)N1CCOCC1`
0.005

Follow-up entry: COc1cc2ncnc(Nc3cccc(Cl)c3F)c2cc1OC(=O)N1CCN(C)C2CC21 (stereo in doubt; 1i)
0.019

Follow-up entry: `COc1cc2ncnc(Nc3cccc(Cl)c3F)c2cc1OC(=O)N1CCN(C)C[C@@H]1C`
0.048

Follow-up entry: `COc1cc2ncnc(Nc3cccc(Cl)c3F)c2cc1N1CCOCC1`
0.002

Follow-up entry: `COc1cc2ncnc(Nc3cccc(Cl)c3F)c2cc1CN1CCOCC1`
0.05

Follow-up entry: `COc1cc2ncnc(Nc3cccc(Cl)c3F)c2cc1OC(=O)N1CCN(C)CC1`
0.031

Follow-up entry: `COc1cc2ncnc(Nc3cccc(Cl)c3F)c2cc1C(=O)N1CCOCC1`
0.046

Follow-up entry: `COc1cc2ncnc(Nc3cccc(Cl)c3F)c2cc1OC(=O)N1CC[C@@H](N(C)C)C1`
0.075

Follow-up entry: `COc1cc2ncnc(Nc3cccc(Cl)c3F)c2cc1OC(=O)N1CCN(C)C[C@H]1C`
0.076

Follow-up entry: `COc1cc2ncnc(Nc3ccc(F)c(Cl)c3)c2cc1N1CCOCC1`
0.001

Follow-up entry: `COc1cc2ncnc(Nc3cccc(Cl)c3F)c2cc1OC(=O)N1CC[C@H](N(C)C)C1`
0.068

Follow-up entry: `COc1cc2ncnc(Nc3cccc(Cl)c3F)c2cc1OC(=O)N1CCN(C)[C@H](C)C1`
0.007

Follow-up entry: `COc1cc2ncnc(Nc3cccc(Cl)c3F)c2cc1OC(=O)N1CCN(C)[C@@H](C)C1`
0.019

====

- systemTested: Cytochrome P450 2D6 (Homo sapiens, UniProt P10635)
- Sequence (P10635 whole entry): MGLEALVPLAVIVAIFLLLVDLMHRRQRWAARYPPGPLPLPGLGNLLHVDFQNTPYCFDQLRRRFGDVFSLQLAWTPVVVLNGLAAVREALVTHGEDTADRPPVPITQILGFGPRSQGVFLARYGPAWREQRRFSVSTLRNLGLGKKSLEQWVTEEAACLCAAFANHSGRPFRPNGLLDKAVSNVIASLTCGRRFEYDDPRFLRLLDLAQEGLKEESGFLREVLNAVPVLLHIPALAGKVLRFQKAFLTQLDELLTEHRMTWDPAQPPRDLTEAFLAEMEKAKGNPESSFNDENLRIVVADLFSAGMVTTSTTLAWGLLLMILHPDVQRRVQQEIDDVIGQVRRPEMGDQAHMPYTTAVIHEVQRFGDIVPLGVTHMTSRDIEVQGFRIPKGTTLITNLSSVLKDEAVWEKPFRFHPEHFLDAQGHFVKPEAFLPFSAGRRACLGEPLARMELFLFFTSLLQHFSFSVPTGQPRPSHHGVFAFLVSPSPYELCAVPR
- experimentDescription: Inhibition of CYP2D6 (unknown origin)
- Type: ADME
reportedMetric: IC50

Return reported IC50; argument: `COc1cc2ncnc(Nc3cccc(Cl)c3F)c2cc1OC(=O)N1CCN(C)C[C@H]1C`
> 50 µM

====

- experimentDescription: AUC (0 to 7 hrs) in Han Wistar rat brain at 2 mg/kg, po by LC-MS/MS analysis
- Assay type: ADME, organism-based
- Set-up: dose 2 mg/kg, time < 7 hr, route oral
- conditionContext: Han Wistar, brain
Mark 1 for AUC(0-t) at 7 h under 0.1 µM·h, 0 if at or over.

Given the entry `COc1cc2ncnc(Nc3ccc(F)c(Cl)c3)c2cc1N1CCOCC1` , would its reported AUC(0-t) at 7 h be below 0.1 µM·h?
1

Follow-up entry: `COc1cc2ncnc(Nc3cccc(Cl)c3F)c2cc1CN1CCOCC1`
0

Follow-up entry: COc1cc2ncnc(Nc3cccc(Cl)c3F)c2cc1OC(=O)N1CCN(C)C2CC21 (stereo in doubt; 1i)
0

Follow-up entry: `COc1cc2ncnc(Nc3cccc(Cl)c3F)c2cc1OC(=O)N1CC[C@H](N(C)C)C1`
0

Follow-up entry: `COc1cc2ncnc(Nc3cccc(Cl)c3F)c2cc1N1CCOCC1`
1

====

- systemTested: Cytochrome P450 1A2 (Homo sapiens)
- Sequence (P05177 whole entry): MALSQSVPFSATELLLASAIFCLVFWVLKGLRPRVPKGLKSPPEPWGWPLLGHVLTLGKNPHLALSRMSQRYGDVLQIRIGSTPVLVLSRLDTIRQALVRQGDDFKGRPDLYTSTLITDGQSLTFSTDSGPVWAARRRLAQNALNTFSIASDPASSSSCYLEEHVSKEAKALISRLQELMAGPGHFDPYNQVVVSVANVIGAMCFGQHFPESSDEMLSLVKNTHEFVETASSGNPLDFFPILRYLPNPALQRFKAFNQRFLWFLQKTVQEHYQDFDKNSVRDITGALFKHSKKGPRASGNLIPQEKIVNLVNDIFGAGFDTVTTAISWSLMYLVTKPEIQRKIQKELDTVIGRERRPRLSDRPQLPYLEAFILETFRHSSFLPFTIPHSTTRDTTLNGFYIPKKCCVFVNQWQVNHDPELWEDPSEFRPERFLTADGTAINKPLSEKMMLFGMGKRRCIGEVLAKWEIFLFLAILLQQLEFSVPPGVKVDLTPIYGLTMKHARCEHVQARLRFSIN
reportedMetric: IC50

Return reported IC50; argument: `COc1cc2ncnc(Nc3cccc(Cl)c3F)c2cc1OC(=O)N1CCN(C)C[C@H]1C`
> 50 µM

====

- systemTested: Epidermal growth factor receptor (Homo sapiens, UniProt P00533, EX19DEL)
- Sequence (P00533 whole entry, looked up, stated change not applied): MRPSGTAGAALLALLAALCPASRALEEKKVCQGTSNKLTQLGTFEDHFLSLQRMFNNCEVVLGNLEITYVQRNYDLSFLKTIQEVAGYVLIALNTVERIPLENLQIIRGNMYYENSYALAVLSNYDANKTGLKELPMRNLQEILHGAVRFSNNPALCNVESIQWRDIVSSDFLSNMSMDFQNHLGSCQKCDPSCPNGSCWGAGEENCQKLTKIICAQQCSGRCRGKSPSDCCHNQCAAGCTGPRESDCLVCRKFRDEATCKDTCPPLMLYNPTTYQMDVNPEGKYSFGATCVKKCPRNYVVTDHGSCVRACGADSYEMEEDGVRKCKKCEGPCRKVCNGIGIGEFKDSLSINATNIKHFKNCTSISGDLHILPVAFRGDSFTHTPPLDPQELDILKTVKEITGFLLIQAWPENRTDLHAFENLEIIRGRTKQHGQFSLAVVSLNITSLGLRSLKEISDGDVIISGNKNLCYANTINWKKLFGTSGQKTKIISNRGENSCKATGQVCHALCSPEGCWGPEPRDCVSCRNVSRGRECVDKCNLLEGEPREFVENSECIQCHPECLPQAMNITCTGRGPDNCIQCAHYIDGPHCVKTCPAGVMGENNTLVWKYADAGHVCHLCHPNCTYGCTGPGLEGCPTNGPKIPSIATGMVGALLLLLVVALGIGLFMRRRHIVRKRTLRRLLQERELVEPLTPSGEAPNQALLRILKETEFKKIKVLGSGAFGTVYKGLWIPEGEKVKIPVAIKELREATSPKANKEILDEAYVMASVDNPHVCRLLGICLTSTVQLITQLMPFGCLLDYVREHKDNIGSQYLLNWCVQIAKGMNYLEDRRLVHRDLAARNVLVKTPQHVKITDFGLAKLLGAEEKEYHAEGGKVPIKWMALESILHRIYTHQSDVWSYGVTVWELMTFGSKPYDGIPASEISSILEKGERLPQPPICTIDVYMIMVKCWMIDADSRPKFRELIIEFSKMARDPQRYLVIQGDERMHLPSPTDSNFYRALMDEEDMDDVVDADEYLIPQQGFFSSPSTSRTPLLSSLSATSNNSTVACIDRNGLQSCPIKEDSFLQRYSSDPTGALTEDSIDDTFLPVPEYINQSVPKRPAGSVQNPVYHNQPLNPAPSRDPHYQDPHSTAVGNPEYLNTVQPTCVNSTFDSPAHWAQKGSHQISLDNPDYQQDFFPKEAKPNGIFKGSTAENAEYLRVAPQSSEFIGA
- experimentDescription: Inhibition of EGFR exon19 deletion mutant phosphorylation in human PC9 cells
reportedMetric: pIC50
Quick note: pIC50 values are minus log10 of concentrations in mol/L.

Return reported pIC50; argument: `COc1cc2ncnc(Nc3cccc(Cl)c3F)c2cc1CN1CCOCC1`
8.42

====

- experimentDescription: Ratio of unbound AUC (0 to 7 hrs) in brain to blood of Han Wistar rat at 2 mg/kg, po by LC-MS/MS analysis
- Format: ADME, organism-based
- conditionContext: Han Wistar, brain and blood, read-out: K(p,uu,brain)
For each record, write down the corresponding Kp uu.
Format: numeric value only, no unit, no commentary.

Return reported Kp uu; argument: `COc1cc2ncnc(Nc3cccc(Cl)c3F)c2cc1OC(=O)N1CCN(C)[C@H](C)C1`
0.28

Follow-up entry: `COc1cc2ncnc(Nc3cccc(Cl)c3F)c2cc1OC(=O)N1C[C@@H]2C[C@H]1CN2C`
0.086

Follow-up entry: `COc1cc2ncnc(Nc3cccc(Cl)c3F)c2cc1OC(=O)N1CCN(C)[C@@H](C)C1`
0.84

Follow-up entry: COc1cc2ncnc(Nc3cccc(Cl)c3F)c2cc1OC(=O)N1CCN(C)C[C@H]1C [AZD-3759]
1.3

Follow-up entry: `COc1cc2ncnc(Nc3cccc(Cl)c3F)c2cc1C(=O)N1CCOCC1`
0.03

Follow-up entry: `COc1cc2ncnc(Nc3cccc(Cl)c3F)c2cc1CN1CCOCC1`
0.47

Follow-up entry: `COc1cc2ncnc(Nc3cccc(Cl)c3F)c2cc1OC(=O)N1CCN(C)CC1`
0.34

Follow-up entry: `COc1cc2ncnc(Nc3cccc(Cl)c3F)c2cc1OC(=O)N1CCOCC1`
1.7

Follow-up entry: `COc1cc2ncnc(Nc3ccc(F)c(Cl)c3)c2cc1N1CCOCC1`
0.42

Follow-up entry: `COc1cc2ncnc(Nc3cccc(Cl)c3F)c2cc1OC(=O)N1CC[C@@H](N(C)C)C1`
0.27

Follow-up entry: `COc1cc2ncnc(Nc3cccc(Cl)c3F)c2cc1OC(=O)N1CCN(C)C[C@@H]1C`
1.6

Follow-up entry: `COc1cc2ncnc(Nc3cccc(Cl)c3F)c2cc1OC(=O)N1CC[C@H](N(C)C)C1`
0.15

Follow-up entry: `COc1cc2ncnc(Nc3cccc(Cl)c3F)c2cc1N1CCOCC1`
0.96

Follow-up entry: COc1cc2ncnc(Nc3cccc(Cl)c3F)c2cc1OC(=O)N1CCN(C)C2CC21 (stereo in doubt; 1i)
0.51

====

- experimentDescription: Volume of distribution at steady state in Han Wistar rat at 1 mg/kg, iv
- Format: ADME, organism-based
- conditionContext: Han Wistar, in vivo, read-out: Vdss
reportedMetric: Vd

Return reported Vd; argument: COc1cc2ncnc(Nc3cccc(Cl)c3F)c2cc1OC(=O)N1CCN(C)C2CC21 (stereo in doubt; 1i)
2 L/kg

Follow-up entry: `COc1cc2ncnc(Nc3cccc(Cl)c3F)c2cc1OC(=O)N1CCN(C)C[C@@H]1C`
2.7 L/kg

Follow-up entry: `COc1cc2ncnc(Nc3cccc(Cl)c3F)c2cc1OC(=O)N1CCN(C)CC1`
1.8 L/kg

Follow-up entry: `COc1cc2ncnc(Nc3cccc(Cl)c3F)c2cc1OC(=O)N1CCN(C)[C@H](C)C1`
3.2 L/kg

Follow-up entry: `COc1cc2ncnc(Nc3cccc(Cl)c3F)c2cc1OC(=O)N1CCN(C)C[C@H]1C`
5.2 L/kg

Follow-up entry: `COc1cc2ncnc(Nc3cccc(Cl)c3F)c2cc1OC(=O)N1CCN(C)[C@@H](C)C1`
1.9 L/kg

====

- experimentDescription: Tmax in beagle dog at 2 mg/kg, po
- Type: ADME, organism-based, Canis lupus familiaris
- conditionContext: in vivo
reportedMetric: Tmax (min)
Response body: numeric value in min, unit text excluded.

Return reported Tmax; argument: COc1cc2ncnc(Nc3cccc(Cl)c3F)c2cc1OC(=O)N1CCN(C)C[C@H]1C [AZD-3759]
30

====

For each record, write down the corresponding fraction unbound at 5 µM.
- experimentDescription: Fraction unbound in Han Wistar rat blood at 5 uM by equilibrium dialysis method
- Type: ADME, tissue-based
- conditionContext: Han Wistar
Format: numeric value only, no unit, no commentary.

Return reported fraction unbound at 5 µM; argument: `COc1cc2ncnc(Nc3cccc(Cl)c3F)c2cc1OC(=O)N1CCN(C)CC1`
0.084

Follow-up entry: `COc1cc2ncnc(Nc3cccc(Cl)c3F)c2cc1OC(=O)N1CCN(C)[C@@H](C)C1`
0.035

Follow-up entry: `COc1cc2ncnc(Nc3cccc(Cl)c3F)c2cc1OC(=O)N1CC[C@H](N(C)C)C1`
0.049

Follow-up entry: `COc1cc2ncnc(Nc3cccc(Cl)c3F)c2cc1OC(=O)N1CC[C@@H](N(C)C)C1`
0.058

Follow-up entry: `COc1cc2ncnc(Nc3cccc(Cl)c3F)c2cc1OC(=O)N1CCOCC1`
0.038

Follow-up entry: `COc1cc2ncnc(Nc3cccc(Cl)c3F)c2cc1N1CCOCC1`
0.058

Follow-up entry: COc1cc2ncnc(Nc3cccc(Cl)c3F)c2cc1OC(=O)N1CCN(C)C2CC21 (stereo in doubt; 1i)
0.028

Follow-up entry: `COc1cc2ncnc(Nc3cccc(Cl)c3F)c2cc1OC(=O)N1CCN(C)C[C@@H]1C`
0.023

Follow-up entry: `COc1cc2ncnc(Nc3ccc(F)c(Cl)c3)c2cc1N1CCOCC1`
0.022

Follow-up entry: `COc1cc2ncnc(Nc3cccc(Cl)c3F)c2cc1OC(=O)N1C[C@@H]2C[C@H]1CN2C`
0.134
